This collection of values is drawn from ChEMBL document CHEMBL1201862.

system: A549; assay: NCI tumour cell line growth inhibition, 48 h
Active and inactive are the calls of the source. Rule as the data show it: active = GI50 up to about 1.1 µM and inactive = higher.
Labels: active, inactive

| Compound | Class Assignment |
| --- | --- |
| CC(=O)OC/C=C(/CCl)CCC(Br)C(C)(C)Br.CC(=O)OC/C=C(\CCl)CCC(Br)C(C)(C)Br (stereo not drawn) | inactive |
| CC1(C)OC(=O)N(c2ccccc2)C12C=Cc1cc([N+](=O)[O-])ccc1O2 (stereo not drawn) | inactive |
| COc1ccc(-n2nnnc2C2(Nc3ccccc3)CCN(Cc3ccccc3)CC2)cc1 | inactive |
| CC(C)(C)OC(=O)NC1CCC(C(C)(C)C)CC1 (stereo not drawn) | inactive |
| COC1OC(CO)C(O)C(O)C1Br (stereo not drawn) | inactive |
| COc1cc2nc(-c3ccccc3)cc(O)c2cc1OC | inactive |
| COC(=O)[C@H](C)[C@@H]1CC[C@](C)(CCC2=C(C)CCCC2(C)C)OO1 | inactive |
| CCN(CC)P1(=S)Oc2ccc3ccccc3c2-c2c(ccc3ccccc23)O1 | inactive |
| COc1cc(/C=C2\N=C(c3ccccc3)N(c3nc4c(OC)ccc(OC)c4s3)C2=O)cc(OC)c1OC | inactive |
| Nc1nc(N)c(CCCCc2ccccc2)c(/C=C/c2ccc([N+](=O)[O-])cc2)n1 | active |
| C#CC[N+](CCO)(CCO)CCCCCCCCCCCCCCCCCC | inactive |
| COC(=O)[C@@]12CN(C)[C@@H](C(C)(C)C)N1C(=O)OC2c1ccccc1 (stereo partly drawn) | inactive |
| CN(CCCNC(=O)c1cc(-c2ccccc2)nc2ccccc12)CCCNC(=O)c1cc(-c2ccccc2)nc2ccccc12 | inactive |
| C=C1C(=O)OC2/C=C(CO)/C=C\C3OC3(C)CC(OC(=O)/C(C)=C/COC(C)=O)C12 (stereo not drawn) | inactive |
| O=C(OCC(Cl)(Cl)Cl)N1CC[C@@H](C2CCCCC2)C1 | inactive |
| CCC1(c2ccc(N3C(=O)c4cc(OC)c(OC)cc4C3=O)cc2)CCC(=O)NC1=O (stereo not drawn) | inactive |
| CCOC(=O)C(C(=O)OCC)C(NC(=O)Nc1cc(C(F)(F)F)ccc1OC)(C(F)(F)F)C(F)(F)F | inactive |
| CCCCC(=O)N/S(=N/C(=O)c1ccccc1)C(Cl)(Cl)Cl (stereo not drawn) | inactive |
| COc1cc(/C=C/C(C)=O)ccc1OP(=O)(O)O | inactive |
| Cc1ccc(C2=Nn3c(nc4sc5c(c4c3=O)CCCC5)SC2)cc1 | inactive |
| COC[C@@H](/N=C/c1ccc([N+](=O)[O-])cc1)C(C)C | inactive |
| Cc1c2n(c3ccccc13)S(=O)(=O)c1ccccc1-2 | inactive |
| Clc1ccc(CN2CCCN(Cc3ccc(Cl)cc3)C2c2cc3ccccc3c3ccccc23)cc1 | inactive |
